meta.source: ChEMBL document CHEMBL1152236

target_or_test_system: Carbonic anhydrase 1 (Homo sapiens, UniProt P00915)
Sequence (P00915 whole entry): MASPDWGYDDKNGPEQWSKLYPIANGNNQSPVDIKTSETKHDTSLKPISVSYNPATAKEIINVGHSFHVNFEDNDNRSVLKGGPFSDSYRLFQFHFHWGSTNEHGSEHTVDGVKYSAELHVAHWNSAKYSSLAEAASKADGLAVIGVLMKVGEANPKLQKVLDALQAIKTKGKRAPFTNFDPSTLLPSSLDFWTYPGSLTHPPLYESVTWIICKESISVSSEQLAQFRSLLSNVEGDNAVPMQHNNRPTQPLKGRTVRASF
experiment_notes: Inhibition of human carbonic anhydrase 1 esterase activity by competitive Lineweaver-Burke plot
reported_property: pKi
Numbers only, as −log10 of the molar value.

Request: Provide pKi value for the following compound: O=C(O)c1cc(S(=O)(=O)O)ccc1O [SULFOSALICYLIC]
Response: 3.11

###

target_or_test_system: UniProtKB P00915
reported_property: log10(IC50) (log10 of the value in µM)
Log10 applied to IC50; unit prior to transform: µM.

// worked examples, log10(IC50) included
compound: Cc1cccc(C(=O)O)c1O [HYDROXYTOLUIC ACID]
target_or_test_system: UniProtKB P00915
observed: 3.49
//
compound: O=C(O)c1cc(Cl)ccc1O
target_or_test_system: UniProtKB P00915
observed: 0.61

State recorded log10(IC50) for all listed compounds.
1. O=C(O)c1cc(-c2ccc(F)cc2F)ccc1O
2. O=C(O)c1ccc(S(=O)(=O)O)cc1O
3. O=C(O)c1c(O)cc([N+](=O)[O-])cc1[N+](=O)[O-]
4. O=C(O)c1cc(/N=N/c2ccc(S(=O)(=O)Nc3ccccn3)cc2)ccc1O

Response:
1: 0.53; 2: 2.46; 3: 0.88; 4: 0.48
